system: full-length recombinant human FYN A (Homo sapiens (Human))
protocol details: ADP-Glo Kinase Assay of FYN kinase inhibition
Format: biochemical
assay setup: primary screen, initial compounds
quantity kind: pIC50
# pIC50 is unitless: minus log10 of the molar concentration; print number only

[
  {
    "compound": "c1cncc(-c2cn3c(-c4ccsc4)cnc3cn2)c1 [388_0074_0071]",
    "system": "full-length recombinant human FYN A (Homo sapiens (Human))",
    "pIC50": 5.36
  },
  {
    "compound": "COc1cc(-c2cc(-c3ccc(O)cc3)cnc2N)cc(OC)c1OC [382_0087_7249]",
    "system": "full-length recombinant human FYN A (Homo sapiens (Human))",
    "pIC50": 5.76
  },
  {
    "compound": "Oc1cccc(-c2cnc3cnc(-c4ccsc4)cn23)c1 [Compound 234]",
    "system": "full-length recombinant human FYN A (Homo sapiens (Human))",
    "pIC50": 5.60
  }
]

Incoming: Request the reported pIC50 associated with CC(=O)c1cccc(-c2cnc3ccc(-c4cccc(C(=O)NCCO)c4)nn23)c1 [Compound 478]
Outgoing: 6.20

Incoming: Then what about the compound CC(=O)Nc1cccc(-c2ccc3ncc(-c4ccc(CO)cc4)n3n2)c1 [Compound 443] ?
Outgoing: 5.65

Incoming: Same thing, different compound: Nc1ccc(-c2cnc3ccc(NCc4cccc(Cl)c4)nn23)cc1 [229_0223_0333]
Outgoing: 5.47

Incoming: Continue with CN(C)C(=O)c1cccc(-c2cn3c(-c4ccc(O)cc4)cnc3cn2)c1 [388_0080_0349]
Outgoing: 6.01

Incoming: Same read-out for CC(=O)c1cccc(-c2ccnc3[nH]nc(C4CCNCC4)c23)c1 [Compound 512] ?
Outgoing: 4.71

Incoming: Same for Cc1cc(-c2cnc(N)c(-c3ccc(CO)cc3)c2)cc(C)c1O [382_0285_0315]
Outgoing: 5.33

* * *

Listing of entries alongside the reported log10 of IC50.
system: full-length recombinant human FYN A (Homo sapiens (Human), UniProt P06241)
Sequence (P06241 whole entry): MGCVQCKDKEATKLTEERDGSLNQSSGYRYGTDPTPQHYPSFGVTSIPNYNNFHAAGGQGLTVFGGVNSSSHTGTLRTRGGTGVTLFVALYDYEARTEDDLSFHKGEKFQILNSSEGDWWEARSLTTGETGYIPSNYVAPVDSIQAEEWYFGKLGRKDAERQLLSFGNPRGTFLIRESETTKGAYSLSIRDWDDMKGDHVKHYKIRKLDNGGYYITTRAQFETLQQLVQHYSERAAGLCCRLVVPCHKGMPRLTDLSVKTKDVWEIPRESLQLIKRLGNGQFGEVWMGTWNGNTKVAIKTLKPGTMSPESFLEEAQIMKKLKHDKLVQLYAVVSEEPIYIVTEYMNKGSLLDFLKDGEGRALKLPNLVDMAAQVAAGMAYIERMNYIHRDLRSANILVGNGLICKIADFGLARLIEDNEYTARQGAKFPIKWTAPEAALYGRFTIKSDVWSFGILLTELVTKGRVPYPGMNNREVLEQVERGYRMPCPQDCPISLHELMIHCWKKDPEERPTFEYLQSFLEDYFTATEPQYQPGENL
protocol details: ADP-Glo Kinase Assay of FYN kinase inhibition
Assay type: biochemical
assay setup: secondary screen, re-synthesized and expanded compounds
Friendly reminder: values = log10 of IC50, unit µM.

# example entries with known answers
[
  {
    "smiles string": "COc1ccc(-c2cnc(N)c(-c3ccc(N4CCN(C)CC4)cc3)c2)cc1O",
    "log10 of IC50": 0.98
  },
  {
    "smiles string": "CC(=O)Nc1cccc(-c2cnc3ccc(-c4ccncc4)nn23)c1",
    "log10 of IC50": -0.13
  },
  {
    "smiles string": "COc1cncc(-c2cnc3sc(NCC4CCOCC4)nn23)c1",
    "log10 of IC50": -0.53
  },
  {
    "smiles string": "COc1cc(-c2cnc(N)c(-c3cc(OC)c(OC)c(OC)c3)c2)cc(OC)c1OC",
    "log10 of IC50": -1.07
  },
  {
    "smiles string": "COc1ccc(-c2cnc3ccc(NCCCO)nn23)cc1OC",
    "log10 of IC50": -0.14
  },
  {
    "smiles string": "CCCNc1ccc2ncc(-c3ccc(OC)c(OC)c3)n2n1",
    "log10 of IC50": -0.55
  }
]

Incoming: I have this molecule here, COc1cc(-c2cnc3ccc(NC4CCOCC4)nn23)cc(OC)c1OC , and I need its recorded log10 of IC50.
Outgoing: -0.30

Incoming: Similarly, COc1cc(-c2cc(-c3ccc(S(C)(=O)=O)cc3)cnc2N)cc(OC)c1OC ?
Outgoing: -0.17

* * *

Each entry below lists one item and its recorded IC50 value.
system: full-length recombinant human FYN A (Homo sapiens (Human))
protocol details: ADP-Glo Kinase Assay of FYN kinase inhibition
Format: biochemical
assay setup: primary screen, initial compounds
Unit µM implied. Number only.

Incoming: # value lookup — system full-length recombinant human FYN A (Homo sapiens (Human)), readout IC50, item O=C(NCCO)c1cccc(-c2cn3c(-c4ccc(O)cc4)cnc3cn2)c1
Outgoing: 1.03

Incoming: Now consider CC(=O)Nc1cccc(-c2cnc3ccc(-c4cccc(C(F)(F)F)c4)nn23)c1 .
Outgoing: 1.6

Incoming: Could you do the same for Nc1ccc(-c2cn3c(-c4ccc(O)cc4)cnc3cn2)cn1 , please?
Outgoing: 1.93

Incoming: COc1cc(-c2cc(-c3ccc(N4CCN(C)CC4)cc3)cnc2N)cc(OC)c1OC ?
Outgoing: 0.322

Incoming: Request: CC(=O)c1cccc(-c2cnc3ccc(-c4ccc(F)cc4)nn23)c1
Outgoing: 4.81

* * *

system: full-length recombinant human FYN A (Homo sapiens (Human))
protocol details: ADP-Glo Kinase Assay of FYN kinase inhibition
Type: biochemical
assay setup: primary screen, initial compounds
quantity kind: pIC50
Expect pIC50 as a plain number equal to -log10 of the molar concentration.

[
  {
    "smiles string": "NS(=O)(=O)c1ccc(CCNc2nn3c(-c4cccnc4)cnc3s2)cc1",
    "pIC50": 5.73
  },
  {
    "smiles string": "c1cc(CNc2nn3c(-c4ccncc4)cnc3s2)ccn1",
    "pIC50": 5.58
  },
  {
    "smiles string": "COc1cc(-c2cnc3ccc(NCc4ccco4)nn23)cc(OC)c1OC",
    "pIC50": 5.31
  },
  {
    "smiles string": "CC(=O)Nc1ccc(-c2ccnc3[nH]nc(-c4ccsc4)c23)cc1",
    "pIC50": 5.31
  },
  {
    "smiles string": "CC(=O)c1cccc(-c2cnc3ccc(-c4ccc(N)nc4)nn23)c1",
    "pIC50": 6.55
  },
  {
    "smiles string": "c1ccc(Nc2cc3[nH]c(-c4cn[nH]c4)cc3cn2)nc1",
    "pIC50": 5.12
  }
]

Incoming: Would you kindly share the measured pIC50 for COc1ccccc1-c1ccc2ncc(-c3ccc(CO)cc3)n2n1 ?
Outgoing: 5.41

Incoming: Same lookup for COc1ccccc1-c1n[nH]c2nccc(-c3ccc(CO)cc3)c12 , please.
Outgoing: 5.96

Incoming: Try Oc1ccc(-c2cn3c(-c4ccsc4)cnc3cn2)cc1 next.
Outgoing: 5.57

Incoming: Now consider CN(C)c1cccc(-c2cnc(Nc3ccc(N4CCOCC4)cc3)c3nccn23)c1 .
Outgoing: 5.57

Incoming: Can you check OCc1ccc(-c2cnc3ccc(-c4cccc(O)c4)nn23)cc1 next?
Outgoing: 5.94

* * *

system: full-length recombinant human FYN A (Homo sapiens (Human))
protocol details: ADP-Glo Kinase Assay of FYN kinase inhibition
Type: biochemical
assay setup: secondary screen, re-synthesized and expanded compounds
quantity kind: pIC50
Answer as the number alone; pIC50 is minus log10 of concentration in mol/L.

Incoming: Request - read-out pIC50 | tested on full-length recombinant human FYN A (Homo sapiens (Human)) | molecule O=C(NCCO)c1ccc(-c2cn3c(-c4ccc(O)cc4)cnc3cn2)cc1 [BF000333882]
Outgoing: 6.13

Incoming: Next up: CCCNc1ccc2ncc(-c3cccc(O)c3)n2n1 [BF000147075]
Outgoing: 6.23

Incoming: Next entry: COc1cc(-c2ccc3ncc(-c4cccc(NC(C)=O)c4)n3n2)ccc1O [BF000726183]
Outgoing: 6.78

Incoming: Note, next up: COc1cc(-c2cc(-c3cccc(C(N)=O)c3)cnc2N)cc(OC)c1OC [BF000312539]
Outgoing: 6.31

Incoming: Entry COc1cc(-c2cnc3ccc(-c4ccncc4)nn23)ccc1O [BF000817169] please
Outgoing: 7.10

Incoming: # repeat for c1csc(CNc2ccc3ncc(-c4ccncc4)n3n2)c1 [BF000145941]
Outgoing: 6.98

Incoming: // same read-out, input: COc1cc(-c2cnc3cnc(-c4cnn(C)c4)cn23)ccc1O [BF000333452]
Outgoing: 6.20

Incoming: Follow-up entry: COc1ccc(-c2cnc3sc(NC4CCC(O)CC4)nn23)cc1OC (stereo not drawn) [BF000717406]
Outgoing: 6.36

Incoming: Subsequent entry: CS(=O)(=O)c1ccc(-c2cnc(N)c(-c3ccc(O)cc3)c2)cc1 [BF000313563]
Outgoing: 5.81

* * *

system: full-length recombinant human FYN A (Homo sapiens (Human))
protocol details: ADP-Glo Kinase Assay of FYN kinase inhibition
Type: biochemical
assay setup: primary screen, initial compounds
quantity kind: pIC50
// pIC50: -log10(molar conc.)

[
  {
    "compound": "CN(C)C(=O)c1cccc(-c2cnc3sc(NC4CCC(O)CC4)nn23)c1 (stereo not shown)",
    "system": "full-length recombinant human FYN A (Homo sapiens (Human))",
    "pIC50": 6.27
  },
  {
    "compound": "COc1ccc(-c2cncc(-c3cccc(C(=O)NCCCN(C)C)c3)n2)cc1",
    "system": "full-length recombinant human FYN A (Homo sapiens (Human))",
    "pIC50": 5.04
  },
  {
    "compound": "c1csc(CNc2nn3c(-c4ccc(N5CCOCC5)cc4)cnc3s2)c1",
    "system": "full-length recombinant human FYN A (Homo sapiens (Human))",
    "pIC50": 5.42
  }
]

Incoming: Value lookup for pIC50; key = COc1cccc(-c2cnc(N)c(-c3ccc(O)cc3)c2)c1
Outgoing: 5.46

Incoming: For CN(C)c1cccc(-c2cc(-c3cccc(CO)c3)cnc2N)c1 then?
Outgoing: 5.57

Incoming: Let us now turn to CC(=O)Nc1cccc(-c2cnc3sc(NCc4ccco4)nn23)c1
Outgoing: 5.34

Incoming: Same for Nc1cccc(-c2cnn3ccc(NCc4cccnc4)nc23)c1
Outgoing: 5.60

Incoming: Field entry: CNc1ccc2ncc(-c3cccc(O)c3)n2n1
Outgoing: 5.66

Incoming: How about COc1ccc(-c2cnc3sc(NCCc4ccc(S(N)(=O)=O)cc4)nn23)cn1 ?
Outgoing: 5.58

Incoming: Now the compound c1csc(-c2cn3c(-c4cccs4)cnc3cn2)c1
Outgoing: 5.30

Incoming: Try CC(=O)Nc1cccc(-c2cnc3ccc(-c4cccc(O)c4)nn23)c1 next.
Outgoing: 5.97

Incoming: Then what about the compound COc1cncc(-c2cnc3sc(NCc4ccc5c(c4)OCO5)nn23)c1 ?
Outgoing: 6.35

Incoming: Another compound to look at: Oc1ccc(-c2cnc3cnc(-c4cccnc4)cn23)cc1
Outgoing: 5.56

Incoming: Next compound: Oc1cccc(-c2cnc3cnc(-c4cccs4)cn23)c1
Outgoing: 5.56
